Consider the following IC50 data for Glycogen synthase kinase-3 beta (Homo sapiens), collected from several reports.
The figure you give is taken to be in nM; do not add the unit.

Please review the following examples before continuing.
molecule	units.of.measure	IC50
CCc1cc(NCc2scnc2-c2ccccc2)n2nccc2n1	nM	730
COc1ccc2c(c1)C(=NNC(=O)c1cc3cc(Br)ccc3o1)C(=O)N2	nM	40.1
O=C(Cn1cc(C2=C(c3ccc(Cl)cc3Cl)C(=O)NC2=O)c2ccccc21)NCCOCCOCCNc1cccc2c1C(=O)N(C1CCC(=O)NC1=O)C2=O (centres unmarked)	nM	457

Request: IC50, test system Glycogen synthase kinase-3 beta (Homo sapiens), entry Cc1[nH]nc2c1C(c1cccnc1)C(C#N)=C(N)N2 (centres unmarked)
4530

Entry `O=C1Nc2ccc(Br)cc2C1=NNC(=O)c1cc2cc(Br)ccc2o1` , system Glycogen synthase kinase-3 beta (Homo sapiens): what IC50 was measured?
32.1

Which IC50 is reported with Glycogen synthase kinase-3 beta (Homo sapiens) for this entry: `CN(C)S(=O)(=O)N1CC(c2nc(N)ncc2-c2ccc(F)cc2)C1` ?
27200

====

What follows is literature data on log10 of IC50 for Glycogen synthase kinase-3 beta (Homo sapiens, UniProt P49841).
All values: log10 IC50 [µM].

Below, 5 molecules whose answers are already recorded.
molecule	recorded.result
Cc1[nH]nc2c1C(c1ccncc1)C(C#N)=C(N)N2 (stereo not shown)	1.01
CON=C1C(=C2C(=O)Nc3cc(Cl)c(Cl)cc32)Nc2ccccc21	-2.00
O=C1Nc2ccc(Cl)cc2C1=NNC(=O)c1cc2cc(Br)ccc2o1	-0.99
Cc1[nH]nc2c1C(c1cccc(Cl)c1)C(C#N)=C(N)N2 (stereo not shown)	0.02
Cc1[nH]nc2c1C(c1ccccc1Br)C(C#N)=C(N)N2 (stereo not shown)	-0.08

Recall the recorded log10 of IC50 for `COc1cc(CCC(=O)/C=C/c2ccc([N+](=O)[O-])s2)ccc1O` with Glycogen synthase kinase-3 beta (Homo sapiens, UniProt P49841) and state it.
-0.06

Hi! What's the reported log10 of IC50 for `COc1cc(CCC(=O)/C=C/c2sccc2C)ccc1O` on Glycogen synthase kinase-3 beta (Homo sapiens, UniProt P49841)?
-0.62

Give recorded log10 of IC50 with Glycogen synthase kinase-3 beta (Homo sapiens, UniProt P49841) for the following molecule: `COc1cc(CCC(=O)/C=C/c2ccc(Br)s2)ccc1O`
-0.85

Reported log10 of IC50 for Glycogen synthase kinase-3 beta (Homo sapiens, UniProt P49841), given `O=C(Nc1ccc(N2CCNCC2)cc1)c1n[nH]cc1Nc1ncnc2sc3c(c12)CCC3` ?
-1.92

Recall the recorded log10 of IC50 for `N#CCc1cc(-c2ccc(Cl)c(Cl)c2)n(-c2ccnc(N[C@H]3CCCN(C(=O)C4CC4)C3)n2)n1` with Glycogen synthase kinase-3 beta (Homo sapiens, UniProt P49841) and state it.
0.60

====

Multiple publications report IC50 for UniProtKB P49841; what follows is a combined list.
Response body: numeric value in nM, unit text excluded.

Take a look at these entries with their results.
compound	IC50 [nM]
COc1cc(CCC(=O)/C=C/c2cccs2)ccc1O	320
Cc1cc(C)c2c(c1)C(=NNC(=O)c1cc3cc(Br)ccc3o1)C(=O)N2	75.5
Cc1nc[nH]c1CSCCNc1cc(-c2ccccc2)nc2ccnn12	211
CS(=O)(=O)N1CC(c2nc(N)ncc2-c2ccc(F)cc2)C1	14800

As a next step, examine the molecule that follows.
Query the reported IC50 for UniProtKB P49841; item: `Oc1cc(-c2c[nH]c3ncc(-c4ccc(CNc5ccncc5)cc4)cc23)cc2cccnc12`
66
